Tested on: human mixed lymphocyte reaction (MLR)
Assay: human mixed lymphocyte reaction (MLR) assay of immunosuppressant activity
Format: cell-based
Test conditions: Table 1
pIC50: −log10 of the molar value.
Property measured: pIC50

CC[C@@H]1/C=C(\C)C[C@H](C)C[C@H](OC)[C@H]2O[C@@](O)(C(=O)C(=O)N3CCCC[C@H]3C(=O)O[C@H](/C(C)=C/[C@@H]3CCC(N4CCN(c5ccccn5)CC4)[C@H](OC)C3)[C@H](C)[C@@H](O)CC1=O)[C@H](C)C[C@@H]2OC (some centres unmarked) [Example 20]
> 6.00

Okay, now this compound:
Return pIC50 measured with human mixed lymphocyte reaction (MLR) given this compound: CC[C@@H]1/C=C(\C)C[C@H](C)C[C@H](OC)[C@H]2O[C@@](O)(C(=O)C(=O)N3CCCC[C@H]3C(=O)O[C@H](/C(C)=C/[C@@H]3CCC(N4CCN(CC(=O)NC(C)C)CC4)[C@H](OC)C3)[C@H](C)[C@@H](O)CC1=O)[C@H](C)C[C@@H]2OC (some centres unmarked) [Example 62] > 6.00

----------
Test system: human mixed lymphocyte reaction (MLR)
Assay: human mixed lymphocyte reaction (MLR) assay of immunosuppressant activity
Format: cell-based
Test conditions: Table 1
Property measured: IC50

CCC1C=C(C)CC(C)CC(OC)C2OC(O)(C(=O)C(=O)N3CCCCC3C(=O)OC(C(C)=CC3CCC(N4CCN(Cc5ccc6c(c5)OCO6)CC4)C(OC)C3)C(C)C(O)CC1=O)C(C)CC2OC (stereo not shown)
< 1000 nM
CC[C@@H]1/C=C(\C)C[C@H](C)C[C@H](OC)[C@H]2O[C@@](O)(C(=O)C(=O)N3CCCC[C@H]3C(=O)O[C@H](/C(C)=C/[C@@H]3CCC(N4CCN(C(=O)OC(C)(C)C)CC4)[C@H](OC)C3)[C@H](C)[C@@H](O)CC1=O)[C@H](C)C[C@@H]2OC (stereo partly shown)
< 1000 nM
CC[C@@H]1/C=C(\C)C[C@H](C)C[C@H](OC)[C@H]2O[C@@](O)(C(=O)C(=O)N3CCCC[C@H]3C(=O)O[C@H](/C(C)=C/[C@@H]3CCC(N4CCCCC4CO)[C@H](OC)C3)[C@H](C)[C@@H](O)CC1=O)[C@H](C)C[C@@H]2OC (stereo partly shown)
< 1000 nM

Okay, now this molecule:
Given CC[C@@H]1/C=C(\C)C[C@H](C)C[C@H](OC)[C@H]2O[C@@](O)(C(=O)C(=O)N3CCCC[C@H]3C(=O)O[C@H](/C(C)=C/[C@@H]3CCC(N4CCN(Cc5ccccc5)CC4)[C@H](OC)C3)[C@H](C)[C@@H](O)CC1=O)[C@H](C)C[C@@H]2OC (stereo partly shown) , state its recorded IC50. < 1000 nM
